target: human Granzyme B (hGzmB) (Homo sapiens); construct: purchased Froelich Lab, Northshore University Health Systems Research Institute, Evanston, Ill., USA; test: Human Granzyme B enzymatic inhibition assay (fluorogenic, kinetic); type: biochemical; settings: activity codes, Table 7; read-out: IC50 Activity Range
Sequence (P10144 21-247): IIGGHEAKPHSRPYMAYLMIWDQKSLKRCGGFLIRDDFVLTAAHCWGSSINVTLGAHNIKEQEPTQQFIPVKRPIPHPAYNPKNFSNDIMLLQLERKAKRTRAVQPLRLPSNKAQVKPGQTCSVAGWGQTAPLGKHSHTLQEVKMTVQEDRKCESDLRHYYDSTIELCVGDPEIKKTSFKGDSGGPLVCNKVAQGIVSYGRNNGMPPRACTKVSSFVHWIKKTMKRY
pIC50: −log10 of the molar value.
Assignment: determine reported pIC50 for the given compounds.

Prompt: Identify measured pIC50 associated with `CC[C@H](C)[C@H](NC(=O)Cc1ccccc1)C(=O)N[C@@H](CCCCN)C(=O)N1c2ccccc2C[C@H]1C(=O)NCc1nn[nH]n1`
Response: < 5.00

Prompt: Identify measured pIC50 associated with `CC[C@H](C)[C@H](NC(=O)C(F)(F)C(F)(F)C(=O)O)C(=O)NCC(=O)N1c2ccccc2C[C@H]1C(=O)NCc1nn[nH]n1`
Response: > 7.00

Prompt: Identify measured pIC50 associated with `CC[C@H](C)[C@H](NC(=O)CN(C)CC(=O)O)C(=O)NCC(=O)N1c2ccccc2C[C@H]1C(=O)NCc1nn[nH]n1`
Response: 6.00 to 7.00
